Assay: MRT (0 to 8 hrs) in C57BL/6J mouse at 100 mg/kg/day, ig by HPLC-MS/MS analysis
Assay type: ADME, organism-based
Conditions: in vivo, po
Measure: MRT (h)
Form entry: value (h) — number only.

Query: Please supply the value of reported MRT for the item `CCc1ccccc1COc1ccccc1C(=O)Nc1cccnc1`
Response: 1.66

###

Assay: Apparent volume of distribution during terminal phase in C57BL/6J mouse at 25 mg/kg/day, ig by HPLC-MS/MS analysis
Assay type: ADME, organism-based
Settings: in vivo, po, read-out: Vz/F
Measure: Vd/F (L)
Respond with the bare value in L.

Query: Return Vd/F for the following compound: `CCc1ccccc1COc1ccccc1C(=O)Nc1cccnc1`
Response: 51.4

###

Assay: Tmax in C57BL/6J mouse at 100 mg/kg/day, ig by HPLC-MS/MS analysis
Format: ADME, organism-based
Details: in vivo, po
Measure: Tmax (min)
Field format: number, assumed min, no unit text.

Query: Please supply the value of reported Tmax for the item `CCc1ccccc1COc1ccccc1C(=O)Nc1cccnc1`
Response: 6

###

Assay: Tmax in C57BL/6J mouse at 50 mg/kg/day, ig by HPLC-MS/MS analysis
Type: ADME, organism-based
Details: in vivo, po
Measure: Tmax (min)
Return type: number; implicit unit min.

Query: # return recorded Tmax for entry `CCc1ccccc1COc1ccccc1C(=O)Nc1cccnc1`
Response: 4.8

###

Assay: Apparent volume of distribution during terminal phase in C57BL/6J mouse at 100 mg/kg/day, ig by HPLC-MS/MS analysis
Assay type: ADME, organism-based
Details: in vivo, po, read-out: Vz/F
Measure: Vd/F (L)
# output: bare number, implied unit L

Query: Name the recorded Vd/F of the molecule listed here: `CCc1ccccc1COc1ccccc1C(=O)Nc1cccnc1`
Response: 28.8

###

Experiment: Apparent volume of distribution during terminal phase in C57BL/6J mouse at 50 mg/kg/day, ig by HPLC-MS/MS analysis
Type: ADME, organism-based
Conditions: in vivo, po, read-out: Vz/F
Measure: Vd/F (L)
Please respond with the number in L and leave the unit unwritten.

Query: Give the reported value of Vd/F for this record: `CCc1ccccc1COc1ccccc1C(=O)Nc1cccnc1`
Response: 26.5

###

Target: UniProt:Q8NHU3
Assay: Inhibition of SMS2 (unknown origin) over-expressed in H5 insect cell lysate using C6-NBD-Ceramide and DMPC as substrates preincubated for 30 mins followed by substrate addition and measured after 2 hrs by TLC or HPLC method
Assay type: subcellular
Parameter pIC50: see the listing below.
In simple prose, pIC50 is minus the logarithm base ten of a concentration in moles per litre.

O=C(Nc1cccnc1)c1ccccc1OCc1ccccc1OCCCCCl: 5.89
O=C(Nc1cccnc1)c1ccccc1OCc1c(Cl)cccc1Cl: 6.16
O=C(NC1CCCCC1)c1ccccc1OCc1ccccc1: 4.36
O=C(Nc1ccccc1)c1ccccc1OCc1ccccc1: 4.87
O=C(Nc1cccnc1)c1ccccc1OCc1ccccc1: 5.49

Query: Provide pIC50, system UniProt:Q8NHU3, entry `O=C(Nc1cccnc1)c1ccccc1OCc1ccccc1Cl`
Response: 5.96

###

Target: Phosphatidylcholine:ceramide cholinephosphotransferase 2 (Homo sapiens, UniProt Q8NHU3)
Sequence (Q8NHU3 whole entry): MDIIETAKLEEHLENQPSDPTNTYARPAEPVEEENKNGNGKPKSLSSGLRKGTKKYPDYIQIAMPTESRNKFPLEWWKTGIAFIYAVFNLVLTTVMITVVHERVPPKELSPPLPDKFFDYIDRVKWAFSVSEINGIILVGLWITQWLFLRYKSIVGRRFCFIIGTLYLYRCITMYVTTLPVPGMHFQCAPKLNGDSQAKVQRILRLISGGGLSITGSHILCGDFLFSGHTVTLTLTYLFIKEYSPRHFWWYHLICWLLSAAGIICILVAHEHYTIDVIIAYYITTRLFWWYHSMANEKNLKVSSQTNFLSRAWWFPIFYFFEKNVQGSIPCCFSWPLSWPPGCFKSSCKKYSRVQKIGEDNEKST
Assay: Inhibition of SMS2 (unknown origin) over-expressed in H5 insect cell lysate using C6-NBD-Ceramide and DMPC as substrates preincubated for 30 mins followed by substrate addition and measured after 2 hrs by TLC or HPLC method
Format: subcellular
Measure: IC50 (nM)
Please reply with the bare figure in nM and do not write the unit itself.

Some compounds with recorded IC50:
N#Cc1cccc(COc2ccccc2C(=O)Nc2cccnc2)c1: 60700
O=C(NCc1ccccc1)c1ccccc1OCc1ccccc1: 34200
COc1ccc(Cl)cc1COc1ccccc1C(=O)Nc1cccnc1: 670

Query: Return IC50 for the following compound: `CCc1ccccc1COc1ccccc1C(=O)Nc1cccnc1`
Response: 880

Query: Specify IC50 for `CCCCCCOc1ccc(Cl)cc1COc1ccccc1C(=O)Nc1cccnc1` and stop.
Response: 520

Query: Give a short answer stating reported IC50 for `Cc1ccc(F)cc1COc1ccccc1C(=O)Nc1cccnc1` .
Response: 740
